Would you mind telling me the reported pIC50 of each entry?
- assay-system: vanilloid receptor (Rattus norvegicus)
- Construct: DRG nerve cells from the primary culture of 2-3 days were equilibrated; endogenous in cells; host or cells: primary culture of dorsal root ganglion neurons from neonatal SD rats
- Sequence (O35433 whole entry): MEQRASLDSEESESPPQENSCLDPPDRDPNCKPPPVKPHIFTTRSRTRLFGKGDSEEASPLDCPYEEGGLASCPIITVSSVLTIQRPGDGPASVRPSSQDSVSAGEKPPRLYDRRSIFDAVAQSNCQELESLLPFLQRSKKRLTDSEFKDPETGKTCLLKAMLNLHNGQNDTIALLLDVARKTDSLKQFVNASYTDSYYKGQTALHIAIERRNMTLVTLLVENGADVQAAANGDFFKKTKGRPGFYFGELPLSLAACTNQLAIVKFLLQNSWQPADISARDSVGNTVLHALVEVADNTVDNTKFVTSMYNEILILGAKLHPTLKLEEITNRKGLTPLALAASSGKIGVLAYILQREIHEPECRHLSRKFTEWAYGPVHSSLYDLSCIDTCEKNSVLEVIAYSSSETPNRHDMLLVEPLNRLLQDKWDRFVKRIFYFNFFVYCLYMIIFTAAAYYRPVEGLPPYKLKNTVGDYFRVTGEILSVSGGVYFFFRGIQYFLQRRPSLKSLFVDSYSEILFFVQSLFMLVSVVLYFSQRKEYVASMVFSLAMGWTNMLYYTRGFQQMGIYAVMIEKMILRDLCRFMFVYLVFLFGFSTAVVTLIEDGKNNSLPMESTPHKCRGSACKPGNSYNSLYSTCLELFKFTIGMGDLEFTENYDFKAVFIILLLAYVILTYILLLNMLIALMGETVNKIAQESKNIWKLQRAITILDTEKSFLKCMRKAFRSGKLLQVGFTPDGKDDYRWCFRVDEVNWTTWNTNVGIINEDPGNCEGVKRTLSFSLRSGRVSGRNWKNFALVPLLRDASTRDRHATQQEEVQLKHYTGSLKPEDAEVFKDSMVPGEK
- protocol-description: 45Ca influx test, antagonistic activity against capsaicin (Calcium Uptake Test, IC50)
- Assay type: cell-based
- Procedure: 1) Separation of Spinal Dorsal Root Ganglia (DRG) in Newborn Rats and Primary Culture Thereof Neonatal(2-day old or younger than 2-day old) SD rats were put in ice for 5 minutes to anesthetize and disinfected with 70% ethanol. […] The DRG were incubated sequentially at 37° C. for 30 min in 200 U/ml collagenase and 2.5 mg/ml trypsin, separately. […]
The quantity pIC50 is defined as the negative base-10 logarithm of the molar concentration.

## Task What value of pIC50 has been recorded for this entry: CC(C)(C)c1ccc(CNC(=NC#N)NCc2ccc(NS(C)(=O)=O)cc2)cc1 [Example 178]
## Result 6.96

## Task What value of pIC50 has been recorded for this entry: Cc1ncsc1CCNC(=S)NCc1ccc(C(C)(C)C)cc1 [Example 73]
## Result 5.92

## Task What value of pIC50 has been recorded for this entry: Cn1cccc1CCNC(=S)NCc1ccc(C(C)(C)C)cc1 [Example 5]
## Result 5.96

## Task What value of pIC50 has been recorded for this entry: CC(C)(C)c1ccc(CNC(=S)NCCc2ccccn2)cc1 [Example 83]
## Result 5.96

## Task What value of pIC50 has been recorded for this entry: Oc1cc2c(cc1O)CN(C(=S)NCCc1ccc(Cl)cc1)CCC2 [Capsazepine, capsazepine, reference compound]
## Result 6.23

## Task What value of pIC50 has been recorded for this entry: CC(C)(C)c1ccc(CNC(=S)NCc2cc(F)c(NS(C)(=O)=O)cc2F)cc1 [Example 33]
## Result 6.96

## Task What value of pIC50 has been recorded for this entry: CNS(=O)(=O)Nc1ccc(C/N=C(\S)NCc2ccc(C(C)(C)C)cc2)cc1 [Example 194]
## Result 6.51

## Task What value of pIC50 has been recorded for this entry: CC(C)(C)c1ccc(CNC(=S)NCc2cc(F)ccc2F)cc1 [Example 90]
## Result 6.38

## Task What value of pIC50 has been recorded for this entry: CC(C)(C)c1ccc(CNC(=S)NCc2ccc(NS(N)(=O)=O)cc2)cc1 [Example 196]
## Result 6.82
